Tested on: COLO 205 colon
Assay Procedure: NCI tumour cell line growth inhibition, 48 h
Endpoint Name: TGI (µM)
Quick reminder: number only, in µM, skip the unit.

// field: TGI; key: C=C(CNCCc1ccc(O)cc1)[C@@H]1CC[C@]2(CO)CC[C@]3(C)[C@H](CC[C@@H]4[C@@]5(C)CCC(N)C(C)(C)[C@@H]5CC[C@]43C)[C@@H]12 (some centres not stated) ; value = 3.3

// field: TGI; key: `O=C1C=C(N2CCN(c3ccccn3)CC2)C(=O)c2c(O)ccc(O)c21` ; value = 16

// field: TGI; key: `CC1(C)[C@@H]2CC[C@@]1(C)[C@H](O)[C@@H]2SCc1ccccc1` ; value = 34.1

// field: TGI; key: Nc1ncc(/C=N/O)c(NCC2(CO)CC(CCc3ccccc3)C2)n1 (configuration not stated) ; value = 27.2

====

Tested on: SF-539 CNS
Assay Procedure: NCI tumour cell line growth inhibition, 48 h; in the data active means GI50 below about 0.43 µM; inactive means the rest
Returns: one label drawn from TRUE for active, FALSE for inactive

Check out these entries, answers already filled in.
>>> assigned_class("Fc1c[c-]c(-c2ccccn2)c(F)c1.[CH3-].[Pt+2].c1ccc(P(C[PH+](c2ccccc2)c2ccccc2)c2ccccc2)cc1")
"FALSE"
>>> assigned_class("CC[C@@]1(O)C(=O)OCc2c1cc1n(c2=O)Cc2cc3c(N)cccc3nc2-1")
"TRUE"

Prompt: Which result was noted for this compound in the test: `Cn1cnc([N+](=O)[O-])c1Sc1nc(N)nc2nc[nH]c12`
Response: FALSE

Prompt: Which result was noted for this compound in the test: `C1=C2CNCC3=Cc4ccc5ccccc5c4OC23Oc2c1ccc1ccccc21`
Response: FALSE

====

System: A549 NSCLC
Assay Procedure: NCI tumour cell line growth inhibition, 48 h
Let's look at some compounds and their measured TGI.
Quick reminder: number only, in µM, skip the unit.

Consider the worked cases shown below.
>>> meas_value("O=C(CCN1CCCC1)Nc1ccc2c(Nc3ccccc3)c3ccccc3nc2c1")
3.22
>>> meas_value("CCN(CC)CCOc1ccc(/C=C2\\CC3C4CC=C5C[C@@H](OC(C)=O)CC[C@]5(C)C4CC[C@]3(C)C2=O)cc1OC (stereo not given in full)")
44.9

// field: TGI; key: CCCNC(=O)CCC(C)[C@H]1CCC2C3C(C[C@H](OC(C)=O)[C@@]21C)[C@@]1(C)CCC2(C[C@H]1C[C@H]3OC(C)=O)OOC1(CCCCC1)OO2 (stereo not given in full) ; value = 2.82

====

Tested on: A549 NSCLC
Assay Procedure: NCI tumour cell line growth inhibition, 48 h; in the data active = GI50 below about 0.43 µM; inactive = the rest
Returns: one label drawn from active, inactive

>>> assigned_class("COc1cc2cc(Oc3ccc(NC(=O)c4cccc5c4OCCO5)cc3)c(C)nc2cc1OC")
"inactive"
>>> assigned_class("CC12OC(C(=O)C13CCC3)C1C(=O)c3ccccc3C(=O)C12 (stereo not given)")
"inactive"
>>> assigned_class("C=CC(=O)Nc1cccc(Nc2nc(Nc3ccc(OCCOC(F)F)cc3)ncc2F)c1")
"inactive"
>>> assigned_class("CC[C@@]1(O)C(=O)OCc2c1cc1n(c2=O)Cc2cc3c(N)cccc3nc2-1")
"active"

Shift focus to the following entry.
Prompt: Which result was noted for this compound in the test: `Cc1ccc(-n2c3c(c4c(CN5CCOCC5)c(O)ccc42)CCc2ccccc2C3=O)cc1`
Response: inactive

====

Let's look at some compounds and their measured TGI.
Test system: HCC-2998 colon
Assay Procedure: NCI tumour cell line growth inhibition, 48 h

Consider the worked cases shown below.
>>> meas_value("COc1ccc(-c2nc(-c3cnccn3)n(C3OC(CO)C(O)C(O)C3O)n2)cc1 (stereo not drawn)")
"> 100 µM"
>>> meas_value("COC(=O)[C@H](Cc1ccccc1)NC(=O)c1csc([C@@H](C[C@H](C(C)C)N(C)C(=O)[C@@H](NC(=O)[C@H]2CCCN2C)C2CC2)OC(C)=O)n1")
"> 33.3 µM"

Please turn your attention to the following entry.
// field: TGI; key: `Nc1ncnc2c1c(-c1ccc(Oc3ccccc3)cc1)nn2C[C@@H]1SSC[C@@H]1O` ; value = 14.8 µM

====

Test system: SK-OV-3 ovarian
Assay Procedure: NCI tumour cell line growth inhibition, 48 h
Endpoint Name: TGI

// field: TGI; key: N#CCCC1(CCC#N)CCCCCCC(CCC#N)(CCC#N)C(O)C1O (stereo unspecified) ; value = > 100 µM

====

Let's look at some molecules and their measured TGI.
System: OVCAR-8 ovarian
Assay Procedure: NCI tumour cell line growth inhibition, 48 h

>>> meas_value("COc1ccc(-c2nc3c(c(=O)n2C(C)=O)C(c2ccc(Cl)cc2)c2sc4c(Cl)cccc4c2O3)cc1 (centres undefined)")
"2.37 µM"
>>> meas_value("CNc1ccc(Cl)cc1S(=O)(=O)c1ccccc1[N+](=O)[O-]")
"> 100 µM"
>>> meas_value("CCOC(=O)/C(C#N)=C/N(CC)/N=C/c1ccccc1")
"> 100 µM"
>>> meas_value("NC(N)=N/N=C/c1c(-c2ccc(Cl)c([N+](=O)[O-])c2)nc2n1CCS2")
"> 100 µM"
>>> meas_value("O=C(OCc1ccccc1C1CSCSC1)c1cc(C(=O)OCc2ccccc2C2CSCSC2)c(C(=O)OCc2ccccc2C2CSCSC2)cc1C(=O)OCc1ccccc1C1CSCSC1")
"> 100 µM"
>>> meas_value("COc1ccc(C2=C(OC(=O)N(C)C)c3cccn3-c3cc(Cl)ccc3S2)cc1")
"> 10 µM"
>>> meas_value("COc1ccc(CC2=NCCc3cc(OC)c(OC)cc32)cc1Br")
"> 100 µM"
>>> meas_value("CCOc1ccc(-c2oc(/C=N/NS(=O)(=O)c3ccc(C)cc3)c([N+](=O)[O-])c2-c2ccc(OCC)cc2)cc1")
"50 µM"

// field: TGI; key: CCOC(=O)C1CCCCc2sc(N)c(C#N)c21 (centres undefined) ; value = > 100 µM

====

Tested on: SK-MEL-5 melanoma
Assay Procedure: NCI tumour cell line growth inhibition, 48 h
Everything with TGI lower than 20 µM is -1; everything else, including exactly 20 µM, is 1.

>>> assigned_class("Cn1cnc([N+](=O)[O-])c1Sc1nc(N)nc2nc[nH]c12")
1
>>> assigned_class("CC12CC(C/C1=N/O)C(C)(C)C2 (stereo unspecified)")
1
>>> assigned_class("COc1cc2cc(C(=O)N3CC(CCl)c4c3cc([N+](C)(C)Cc3ccc([N+](=O)[O-])n3C)c3ccccc43)[nH]c2c(OC)c1OC (stereo unspecified)")
-1
>>> assigned_class("CC/C(Cl)=N\\OC(=O)Nc1ccc(F)cc1F")
1
>>> assigned_class("COc1ccc(-c2nc(-c3cnccn3)n(C3OC(CO)C(O)C(O)C3O)n2)cc1 (stereo unspecified)")
1

Prompt: I'd appreciate it if you could say whether `COc1ccc(/C=C/C(=O)C(C)(C)Br)cc1` has TGI at least equal to 20 µM.
Response: 1

Prompt: I'd appreciate it if you could say whether `COc1ccccc1/C=C\C(=O)c1ccccc1` has TGI at least equal to 20 µM.
Response: -1

Prompt: I'd appreciate it if you could say whether `c1ccc(NC[Si]23OCCN(CCO2)CCO3)cc1` has TGI at least equal to 20 µM.
Response: 1

Prompt: I'd appreciate it if you could say whether `NS(=O)(=O)c1cc(S(N)(=O)=O)c(NC(=O)N(c2ccccc2)c2ccccc2)c(Cl)c1Cl` has TGI at least equal to 20 µM.
Response: 1

Prompt: I'd appreciate it if you could say whether `Cc1c2cccc-2ccc2c1[nH]c1ccccc12` has TGI at least equal to 20 µM.
Response: -1

Prompt: I'd appreciate it if you could say whether COC(=O)C1(F)C(=O)NC(=O)NC1OC (stereo unspecified) has TGI at least equal to 20 µM.
Response: 1

====

System: HT29 colon
Assay Procedure: NCI tumour cell line growth inhibition, 48 h; in the data active means GI50 below about 0.43 µM; inactive means the rest
Returns: one label drawn from active, inactive

Check out these entries, answers already filled in.
>>> assigned_class("O=C(Nc1ccccc1O)c1ccc(CNC(=O)c2ccsc2Nc2ccnc(C(F)(F)F)c2)cc1")
"inactive"
>>> assigned_class("COC(=O)[C@H](Cc1ccccc1)NC(=O)c1csc([C@@H](C[C@H](C(C)C)N(C)C(=O)[C@@H](NC(=O)[C@H]2CCCN2C)C2CC2)OC(C)=O)n1")
"active"

Prompt: Which result was noted for this compound in the test: `O=C(Cc1ccc(/C=C/C(=O)c2ncc[nH]2)cc1)Nc1ccc(C(F)(F)F)cc1`
Response: inactive

Prompt: Which result was noted for this compound in the test: `COc1ccc(C(=O)C[C@]2(O)C(=O)Nc3c(Cl)ccc(Cl)c32)cc1`
Response: active

====

Test system: U251 CNS
Assay Procedure: NCI tumour cell line growth inhibition, 48 h
Endpoint Name: TGI

Consider the worked cases shown below.
>>> meas_value("O=C1C=C(N2CCN(c3ccccn3)CC2)C(=O)c2c(O)ccc(O)c21")
"23 µM"
>>> meas_value("NS(=O)(=O)c1cc(S(N)(=O)=O)c(NC(=O)N(c2ccccc2)c2ccccc2)c(Cl)c1Cl")
"> 100 µM"
>>> meas_value("Cc1n(Cc2ccc3ccccc3c2)c(Cl)c(Cl)[n+]1Cc1ccc2ccccc2c1")
"3.6 µM"
>>> meas_value("Fc1cc(-c2nnc3n2N=C(c2ccc(Cl)cc2Cl)CS3)c(Cl)cc1Cl")
"> 100 µM"
>>> meas_value("CC(C)(C)OC(=O)N1CCc2c(n(C/C=C/c3ccccc3)[nH]c2=O)C1")
"> 100 µM"
>>> meas_value("CCCNC(=O)CCC(C)[C@H]1CCC2C3C(C[C@H](OC(C)=O)[C@@]21C)[C@@]1(C)CCC2(C[C@H]1C[C@H]3OC(C)=O)OOC1(CCCCC1)OO2 (stereo partly drawn)")
"3.84 µM"
>>> meas_value("c1ccc(NC[Si]23OCCN(CCO2)CCO3)cc1")
"> 100 µM"

Please turn your attention to the following entry.
// field: TGI; key: C=C(CNCCc1ccc(O)cc1)[C@@H]1CC[C@]2(CO)CC[C@]3(C)[C@H](CC[C@@H]4[C@@]5(C)CCC(N)C(C)(C)[C@@H]5CC[C@]43C)[C@@H]12 (stereo partly drawn) ; value = 2.12 µM
